Assay: qHTS of small molecules that selectively kill Giardia lamblia: Hit Validation in HepG2 cytotox;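 note: compound exposure lasted overnight at 37 deg C; nearly all actives have a fitted effect of over 55% in size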; note: potency is the fitted concentration of half-maximal effect
Conditions: cell viability; HepG2 cytotoxicity; series mostly up to 38.3 µM
The campaign covered roughly 1,300 compounds. About 150 (12%) were called active. Roughly 30% stayed inconclusive and do not appear here. Many of the other results were omitted from the sample, so actives are more common in it than they were.
MEASURED ATTRIBUTE: Potency

Completed entries (count: 10):
compound=O=C(CNc1ccc2ccccc2c1)N/N=C/c1ccc([N+](=O)[O-])o1 measured_attribute=Potency result=inactive
compound=Nc1c(Cl)cc(C2=NCCn3c2c2ccccc2[n+]3[O-])cc1Cl measured_attribute=Potency result=inactive
compound=Cc1cc(=O)oc2cc(O)c(N=Nc3ccccc3)cc12 measured_attribute=Potency result=inactive
compound=O=C(c1ccc([N+](=O)[O-])o1)N1CCc2ccccc2C1 measured_attribute=Potency result=inactive
compound="CC(NC(=O)C12CC3CC(CC(C3)C1)C2)C(=O)NN=Cc1ccc([N+](=O)[O-])o1 (stereo not given)" measured_attribute=Potency result=inactive
compound="CN(C(=O)CSc1nc2ccccc2c(=O)n1-c1ccc(F)cc1)C1CCS(=O)(=O)C1 (stereo not given)" measured_attribute=Potency result=inactive
compound=O=C(N/N=C/c1ccc([N+](=O)[O-])o1)c1ccc2c(c1)OCO2 measured_attribute=Potency result="4.65 µM (active)"
compound=CS(=O)(=O)N1CCN(c2ccc([N+](=O)[O-])c3cccnc23)CC1 measured_attribute=Potency result=inactive
compound=O=C(CNc1cccc([N+](=O)[O-])c1)N/N=C/c1ccc([N+](=O)[O-])o1 measured_attribute=Potency result=inactive
compound=CCCCCCCC(=O)N/N=C/c1ccc([N+](=O)[O-])o1 measured_attribute=Potency result=inactive

Exam item: Bench note: what Potency did O=c1[nH]c2cccnc2n1-c1ccc([N+](=O)[O-])cc1 show?
Marked response: inactive

Exam item: Also O=C(CSc1cccc[n+]1[O-])Nc1cc2c(cc1Cl)C(=O)c1ccccc1C2=O , if possible.
Marked response: inactive
